Test: yeast display, Sf9 membrane polyspecificity reagent, FACS + sequencing; frameworks hold sequencing errors
Measured Property: polyreactivity (PSR sort gate)

Sequence Data	Endpoint Value
QVQLVESGGGLVQAGGSLRLSCAASGFIFGTNTMGWYRQEPGKERELVAAITSVGSTNYADSVKGRFTISRDNAKNTVYLLMNSLKPEDTAVYYCPATLYYQYGGDYWGQGTQVTVSS	low polyreactivity
QVQLVESGGGLVQAGGSLRLSCAASGFTLVLNAMGWYRQAPGKERELVAAIRRSAGSTYYADSVKGRFTISRDNAKNTVYLQMNSLKPEDTAVYYCAAGFLWAKYAYGHWGQGTQVTVSS	low polyreactivity
